- assay notes: Pharmacokinetics in male Han Wistar rats, intravenous and oral
- Assay type: in vivo
- protocol conditions: male, Han Wistar, plasma; rat, IV, 1.0 mg/kg; read-out: CLp* (converted)
recorded endpoint: clearance (mL/min)
Write the answer as a number in mL/min, unit excluded.

*Q* Could you please provide reported clearance for O=C(O)c1ccc(C2(NC(=O)c3cc(C(F)(F)F)cnc3N3CC(Oc4cccc(F)c4)C3)CC2)cc1 ? Thanks!
*A* 5.68

*Q* Could you please provide reported clearance for Cc1cc(F)ccc1NC1CN(c2ncc(Cl)cc2C(=O)NC2(c3ccc(C(=O)O)cc3)CC2)C1 ? Thanks!
*A* 14.4

Please find the next compound below.
*Q* Could you please provide reported clearance for Cc1cc(F)ccc1NC1CN(c2ncc(C(F)(F)F)cc2C(=O)NC2(c3ccc(C(=O)O)cc3)CC2)C1 ? Thanks!
*A* 11.2

----------
Item-by-item account of AUC(0-inf)
- assay notes: Pharmacokinetics in male Han Wistar rats, intravenous and oral
- Assay type: in vivo
- protocol conditions: male, Han Wistar, plasma; rat, IV, 2.0 mg/kg
Write the answer as a number in ng·h/mL, unit excluded.

*Q* Could you please provide reported AUC(0-inf) for O=C(O)c1ccc(C2(NC(=O)c3cc(Cl)cnc3N3CC(Oc4cccc(F)c4)C3)CC2)cc1 [E 16] ? Thanks!
*A* 3330

Next:
*Q* Could you please provide reported AUC(0-inf) for O=C(O)c1ccc(C2(NC(=O)c3cc(Cl)cnc3N3CC(Oc4ccccc4)C3)CC2)cc1 [E 10] ? Thanks!
*A* 3150

----------
- tgt: human EP4 receptor (Homo sapiens, UniProt P35408)
- Construct: expressed in transfected cells; membrane fraction used
- Sequence (P35408 whole entry): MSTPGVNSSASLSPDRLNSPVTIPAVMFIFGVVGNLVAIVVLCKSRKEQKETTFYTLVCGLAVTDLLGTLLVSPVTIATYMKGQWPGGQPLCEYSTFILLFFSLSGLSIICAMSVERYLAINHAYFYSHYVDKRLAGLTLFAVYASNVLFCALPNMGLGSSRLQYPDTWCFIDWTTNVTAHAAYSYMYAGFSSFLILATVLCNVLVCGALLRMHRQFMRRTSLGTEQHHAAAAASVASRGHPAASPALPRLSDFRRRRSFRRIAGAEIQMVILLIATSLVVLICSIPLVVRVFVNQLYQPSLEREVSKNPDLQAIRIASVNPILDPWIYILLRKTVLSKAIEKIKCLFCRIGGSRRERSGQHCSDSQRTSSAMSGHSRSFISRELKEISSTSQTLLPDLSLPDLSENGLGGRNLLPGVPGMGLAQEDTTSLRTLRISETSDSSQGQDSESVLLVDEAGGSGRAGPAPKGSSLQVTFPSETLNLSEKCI
- assay notes: cAMP assay (AlphaScreen) on human EP4 membrane of transfected cells, antagonism of PGE2
- Type: biochemical
- protocol conditions: HEK293 hEP4 cell membrane stimulated with PGE2 3 nM; read-out: functional IC50
pIC50: −log10 of the molar value.
Use Fulfilled when the recorded pIC50 is no lower than 7; use Not fulfilled when it is lower.

Some solved cases for reference:
*Q* Form field: pIC50 at least 7? Entry: O=C(O)c1ccc(C2(NC(=O)c3cc(Cl)cnc3N3CCC(COc4cccc(F)c4)C3)CC2)cc1 (stereo not shown)
*A* Fulfilled

*Q* Form field: pIC50 at least 7? Entry: O=C(O)c1ccc(C2(NC(=O)c3cc(C(F)(F)F)cnc3N3CC(Oc4cccc(C(F)(F)F)n4)C3)CC2)cc1
*A* Not fulfilled

*Q* Form field: pIC50 at least 7? Entry: O=C(O)c1ccc(C2(NC(=O)c3cc(Cl)cnc3N3CC(Nc4ccc(F)cc4F)C3)CC2)cc1
*A* Fulfilled

*Q* Form field: pIC50 at least 7? Entry: O=C(O)c1ccc(C2(NC(=O)c3cc(Cl)cnc3N3CCCC3c3ccccc3)CC2)cc1 (single isomer, unassigned) [E 1]
*A* Not fulfilled

*Q* Form field: pIC50 at least 7? Entry: O=C(O)c1ccc(C2(NC(=O)c3cc(Cl)cnc3N3CC(Oc4cccc(OC(F)(F)F)c4)C3)CC2)cc1
*A* Fulfilled

*Q* Form field: pIC50 at least 7? Entry: O=C(O)c1ccc(C2(NC(=O)c3cc(C(F)(F)F)cnc3N3CC(Oc4ccc(Cl)cc4)C3)CC2)cc1
*A* Fulfilled

Could you now look at the following molecule, please?
*Q* Form field: pIC50 at least 7? Entry: Cc1cc(F)ccc1N(C)C1CN(c2ncc(Cl)cc2C(=O)NC2(c3ccc(C(=O)O)cc3)CC2)C1
*A* Fulfilled

----------
- tgt: human EP4 receptor (Homo sapiens, UniProt P35408)
- Construct: membrane fraction used
- assay notes: cAMP assay (AlphaScreen) on human EP4 membrane of transfected cells, antagonism of PGE2
- protocol conditions: HEK293 hEP4 cell membrane stimulated with PGE2 3 nM; read-out: functional IC50
pIC50: −log10 of the molar value.
Use criterion met when the recorded pIC50 is no lower than 7; use criterion not met when it is lower.

Some solved cases for reference:
*Q* Form field: pIC50 at least 7? Entry: Cc1cc(F)ccc1NC1CN(c2ncc(C(F)(F)F)cc2C(=O)NC2(c3ccc(C(=O)O)cc3)CC2)C1 [E 51]
*A* criterion met

*Q* Form field: pIC50 at least 7? Entry: O=C(O)c1ccc(C2(NC(=O)c3cc(C(F)(F)F)cnc3N3CC(Oc4ccc(F)cc4F)C3)CC2)cc1 [E 44]
*A* criterion met

*Q* Form field: pIC50 at least 7? Entry: Cc1cc(C(F)(F)F)ccc1NC1CN(c2ncc(Cl)cc2C(=O)NC2(c3ccc(C(=O)O)cc3)CC2)C1 [E 36]
*A* criterion met

*Q* Form field: pIC50 at least 7? Entry: O=C(O)c1ccc(C2(NC(=O)c3cc(Cl)cnc3N3CC(Oc4ccc(C(F)(F)F)cc4)C3)CC2)cc1 [E 13]
*A* criterion not met

Next:
*Q* Form field: pIC50 at least 7? Entry: O=C(O)c1ccc(C2(NC(=O)c3cc(Cl)cnc3N3CC(Nc4ccc(F)cc4)C3)CC2)cc1 [E 33]
*A* criterion met

*Q* Form field: pIC50 at least 7? Entry: C[C@H](NC(=O)c1cc(Cl)cnc1N1CC(Oc2ccc(F)cc2)C1)c1ccc(C(=O)O)cc1 [E 11]
*A* criterion not met

*Q* Form field: pIC50 at least 7? Entry: Cc1cc(F)ccc1NC1CN(c2ncc(F)cc2C(=O)NC2(c3ccc(C(=O)O)cc3)CC2)C1 [E 56]
*A* criterion met

*Q* Form field: pIC50 at least 7? Entry: O=C(O)c1ccc(C2(NC(=O)c3cc(C(F)(F)F)cnc3N3CC(Oc4cccc(OC(F)(F)F)c4)C3)CC2)cc1 [E 43]
*A* criterion met

*Q* Form field: pIC50 at least 7? Entry: O=C(O)c1ccc(C2(NC(=O)c3cc(Cl)cnc3N3CC(Nc4cccc(C(F)(F)F)c4)C3)CC2)cc1 [E 31]
*A* criterion met

----------
- tgt: human EP4 receptor (Homo sapiens)
- Construct: expressed in transfected cells; membrane fraction used
- assay notes: [3H]-Prostaglandin E2 membrane binding assay (human EP4/HEK293 transfectant membranes)
- protocol conditions: [3H]-PGE2 1 nM, hEP4/HEK293 membranes; Ki by Cheng-Prusoff; read-out: Binding pKi (converted)
Item-by-item account of log10 of Ki
Please keep in mind that the values are log10 of Ki expressed in nM.

Examples with answers:
*Q* Quote log10 of Ki with test system human EP4 receptor (Homo sapiens) for O=C(O)c1ccc(C2(NC(=O)c3cc(C(F)(F)F)cnc3N3CC(Oc4ccc(Cl)cc4)C3)CC2)cc1
*A* 0.70

*Q* Quote log10 of Ki with test system human EP4 receptor (Homo sapiens) for O=C(O)c1ccc(C2(NC(=O)c3cc(Cl)cnc3N3CC(Oc4cccc(N5CCNCC5)c4)C3)CC2)cc1
*A* 1.80

Next:
*Q* Quote log10 of Ki with test system human EP4 receptor (Homo sapiens) for O=C(O)c1ccc(C2(NC(=O)c3cc(C(F)(F)F)cnc3N3CC(Oc4cccc(Cl)c4)C3)CC2)cc1
*A* 0.70

*Q* Quote log10 of Ki with test system human EP4 receptor (Homo sapiens) for O=C(O)c1ccc(C2(NC(=O)c3cc(C(F)(F)F)cnc3N3CC(Oc4ccc(F)c(F)c4)C3)CC2)cc1
*A* 0.50

*Q* Quote log10 of Ki with test system human EP4 receptor (Homo sapiens) for O=C(O)c1ccc(C2(NC(=O)c3cc(Cl)cnc3N3CCC(Oc4cccc(F)c4)C3)CC2)cc1 (single isomer, unassigned) [E 69]
*A* 1.70

*Q* Quote log10 of Ki with test system human EP4 receptor (Homo sapiens) for O=C(O)c1ccc(C2(NC(=O)c3cc(Cl)cnc3N3CC(Nc4ccc(F)cc4)C3)CC2)cc1
*A* 0.80

*Q* Quote log10 of Ki with test system human EP4 receptor (Homo sapiens) for O=C(O)c1ccc(C2(NC(=O)c3cc(Cl)cnc3N3CCC(COc4cccc(F)c4)C3)CC2)cc1 (stereo not shown)
*A* 1.50

----------
- assay notes: Pharmacokinetics in male Han Wistar rats, intravenous and oral
- Format: in vivo
- protocol conditions: male, Han Wistar, plasma; rat, IV, 2.0 mg/kg; read-out: Vss*
recorded endpoint: Vd (L)
Write the answer as a number in L, unit excluded.

*Q* Could you please provide reported Vd for O=C(O)c1ccc(C2(NC(=O)c3cc(Cl)cnc3N3CC(Oc4cccc(F)c4)C3)CC2)cc1 ? Thanks!
*A* 0.394

Please find the next compound below.
*Q* Could you please provide reported Vd for O=C(O)c1ccc(C2(NC(=O)c3cc(Cl)cnc3N3CC(Oc4ccccc4)C3)CC2)cc1 ? Thanks!
*A* 0.307

----------
- tgt: human EP4 receptor (Homo sapiens, UniProt P35408)
- Construct: expressed in transfected cells; membrane fraction used
- assay notes: [3H]-Prostaglandin E2 membrane binding assay (human EP4/HEK293 transfectant membranes)
- protocol conditions: [3H]-PGE2 1 nM, hEP4/HEK293 membranes; Ki by Cheng-Prusoff; read-out: Binding pKi (converted)
Item-by-item account of log10(Ki)
Please keep in mind that the values are log10 of Ki expressed in nM.

Examples with answers:
*Q* Could you please provide reported log10(Ki) for O=C(O)c1ccc(C2(NC(=O)c3cc(Cl)cnc3N3CCCC3c3ccccc3)CC2)cc1 (single isomer, unassigned) [E 1] ? Thanks!
*A* 2.60

*Q* Could you please provide reported log10(Ki) for O=C(O)c1ccc(C2(NC(=O)c3cc(C(F)(F)F)cnc3N3CC(Nc4cccc(F)c4)C3)CC2)cc1 ? Thanks!
*A* 1.40

*Q* Could you please provide reported log10(Ki) for O=C(O)c1ccc(C2(NC(=O)c3cc(Cl)cnc3N3CC(Oc4cccc(OC(F)(F)F)c4)C3)CC2)cc1 ? Thanks!
*A* 1.10

*Q* Could you please provide reported log10(Ki) for Cc1cc(C(F)(F)F)ccc1NC1CN(c2ncc(Cl)cc2C(=O)NC2(c3ccc(C(=O)O)cc3)CC2)C1 ? Thanks!
*A* 0.60

*Q* Could you please provide reported log10(Ki) for O=C(O)c1ccc(C2(NC(=O)c3cc(Cl)cnc3N3CC(Nc4cccc(F)c4)C3)CC2)cc1 ? Thanks!
*A* 1.40

Next:
*Q* Could you please provide reported log10(Ki) for O=C(O)c1ccc(C2(NC(=O)c3cc(Cl)cnc3N3CCC(Oc4cccc(C(F)(F)F)c4)C3)CC2)cc1 (single isomer, unassigned) [E 65] ? Thanks!
*A* 1.60

*Q* Could you please provide reported log10(Ki) for C[C@H](NC(=O)c1cc(Cl)cnc1N1CC(Oc2cccc(F)c2)C1)c1ccc(C(=O)O)cc1 ? Thanks!
*A* 1.20
